Origin of values: patent US7977322B2

Target: ΔF508-CFTR (Homo sapiens, UniProt P13569, DEL508-508)
Construct: expressed in transfected cells
Sequence (P13569 with tags, fused parts or gaps DEL508-508): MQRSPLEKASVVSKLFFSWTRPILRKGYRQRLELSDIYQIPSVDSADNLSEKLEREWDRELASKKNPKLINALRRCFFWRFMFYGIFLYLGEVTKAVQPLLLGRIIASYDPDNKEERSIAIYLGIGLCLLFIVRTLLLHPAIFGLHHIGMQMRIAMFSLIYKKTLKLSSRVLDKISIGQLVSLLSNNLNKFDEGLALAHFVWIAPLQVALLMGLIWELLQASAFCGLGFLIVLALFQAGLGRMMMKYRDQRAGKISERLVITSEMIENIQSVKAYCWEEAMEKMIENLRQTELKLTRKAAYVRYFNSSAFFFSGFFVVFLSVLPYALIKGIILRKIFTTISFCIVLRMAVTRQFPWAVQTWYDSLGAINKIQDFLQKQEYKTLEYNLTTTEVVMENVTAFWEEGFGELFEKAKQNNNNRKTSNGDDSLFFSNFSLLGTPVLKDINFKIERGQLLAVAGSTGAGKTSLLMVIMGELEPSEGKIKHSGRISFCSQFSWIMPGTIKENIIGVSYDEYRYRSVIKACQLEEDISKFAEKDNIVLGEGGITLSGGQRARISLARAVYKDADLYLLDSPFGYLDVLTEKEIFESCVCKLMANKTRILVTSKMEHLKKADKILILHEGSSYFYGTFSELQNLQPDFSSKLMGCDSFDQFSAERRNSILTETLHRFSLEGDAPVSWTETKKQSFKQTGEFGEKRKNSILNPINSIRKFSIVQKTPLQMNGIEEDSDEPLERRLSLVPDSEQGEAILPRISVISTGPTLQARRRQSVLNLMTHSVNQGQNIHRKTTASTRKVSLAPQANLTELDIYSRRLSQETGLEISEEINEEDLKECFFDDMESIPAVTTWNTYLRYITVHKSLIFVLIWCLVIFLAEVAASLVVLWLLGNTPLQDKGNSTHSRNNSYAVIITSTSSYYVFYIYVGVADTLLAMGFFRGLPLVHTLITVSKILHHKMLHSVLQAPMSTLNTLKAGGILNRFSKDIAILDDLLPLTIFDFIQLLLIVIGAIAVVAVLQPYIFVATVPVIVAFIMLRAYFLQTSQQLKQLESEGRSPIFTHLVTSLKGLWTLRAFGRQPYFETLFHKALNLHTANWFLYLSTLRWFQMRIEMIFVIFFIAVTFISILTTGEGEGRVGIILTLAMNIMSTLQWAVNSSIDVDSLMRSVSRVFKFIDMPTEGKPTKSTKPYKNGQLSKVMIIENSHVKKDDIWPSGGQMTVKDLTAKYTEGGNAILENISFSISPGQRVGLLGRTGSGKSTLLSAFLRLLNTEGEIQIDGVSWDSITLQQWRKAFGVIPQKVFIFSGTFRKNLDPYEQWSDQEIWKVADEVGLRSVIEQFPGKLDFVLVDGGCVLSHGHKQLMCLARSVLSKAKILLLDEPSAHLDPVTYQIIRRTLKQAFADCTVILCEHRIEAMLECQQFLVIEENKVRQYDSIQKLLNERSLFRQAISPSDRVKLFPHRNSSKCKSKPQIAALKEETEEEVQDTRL
Assay: Membrane potential optical (FRET/VIPR) assay, identification of correction compounds
Type: cell-based
Settings: Table 3; assay not given; read-out: % Activity / % Efficacy (relative efficacy)
Reported Emax is given for each of the following compounds.

Consider CS(=O)(=O)c1ccc(C(c2cnc(NC(=O)C3(c4ccc5c(c4)OCO5)CC3)s2)N2CCC(O)CC2)cc1 (stereo not shown) [Example 380] . Its measured Emax is 25 to 100%

Consider O=C(Nc1ncc([C@H](O)c2ccccc2Cl)s1)C1(c2ccc3c(c2)OCO3)CC1 [Example 323] . Its measured Emax is > 100%

Consider CC(C)C[C@H](CO)NC(c1cnc(NC(=O)C2(c3ccc4c(c3)OCO4)CC2)s1)c1ccccc1F (stereo partly shown) [Example 482] . Its measured Emax is > 100%

Consider CN1CCN(c2cccc(C3(C(=O)Nc4ncc(Cc5ccccc5Cl)s4)CC3)c2)CC1 [Example 314] . Its measured Emax is 25 to 100%

----------
Biological target: ΔF508-CFTR (Homo sapiens, UniProt P13569, DEL508-508)
Construct: expressed in transfected cells
Test: Membrane potential optical (FRET/VIPR) assay, identification of correction compounds
Format: cell-based
Conditions: Table 3; assay not given; read-out: % Activity / % Efficacy (relative efficacy)
Reported Emax is given for each of the following molecules.

Sample records with Emax:
{"molecule": "CCN(CC)C(c1ccccc1)c1cnc(NC(=O)C2(c3ccc4c(c3)OCO4)CC2)s1 (centres unmarked)", "measured target": "ΔF508-CFTR (Homo sapiens, UniProt P13569, DEL508-508)", "reported metric": "Emax", "result": "> 100%"}
{"molecule": "C[C@@H](O)CNC(c1cnc(NC(=O)C2(c3ccc4c(c3)OCO4)CC2)s1)c1ccccc1Cl (some centres unmarked)", "measured target": "ΔF508-CFTR (Homo sapiens, UniProt P13569, DEL508-508)", "reported metric": "Emax", "result": "> 100%"}
{"molecule": "O=C(Nc1ncc(C(NCc2ccco2)c2ccccc2Cl)s1)C1(c2ccc3c(c2)OCO3)CC1 (centres unmarked)", "measured target": "ΔF508-CFTR (Homo sapiens, UniProt P13569, DEL508-508)", "reported metric": "Emax", "result": "> 100%"}

Now let's try a different one.
Consider COC[C@H]1CCCN1C(Cc1ccccc1Cl)c1cnc(NC(=O)C2(c3ccc4c(c3)OCO4)CC2)s1 (some centres unmarked) . Its measured Emax is > 100%

----------
Target: ΔF508-CFTR (Homo sapiens, UniProt P13569, DEL508-508)
Construct: expressed in transfected cells
Experiment: Membrane potential optical (FRET/VIPR) assay, identification of correction compounds
Type: cell-based
Settings: Table 3; assay not given; read-out: % Activity / % Efficacy (relative efficacy)
Reported Emax is given for each of the following molecules.

Sample records with Emax:
{"molecule": "O=C(Nc1ncc(C(c2cccc3c2OC(F)(F)O3)N2CCCC2)s1)C1(c2ccc3c(c2)OCO3)CC1 (stereo not shown)", "reported metric": "Emax", "result": "25 to 100%"}
{"molecule": "CCCN(CC1CC1)C(c1cnc(NC(=O)C2(c3ccc4c(c3)OCO4)CC2)s1)c1ccccc1Cl (stereo not shown)", "reported metric": "Emax", "result": "> 100%"}
{"molecule": "CCN(CCO)C(c1cnc(NC(=O)C2(c3ccc4c(c3)OCO4)CC2)s1)c1ccccc1Cl (stereo not shown)", "reported metric": "Emax", "result": "> 100%"}

Consider O=C(Nc1ncc(C(c2ccccc2F)N2CCCC2)s1)C1(c2ccc3c(c2)OCO3)CC1 (stereo not shown) . Its measured Emax is > 100%
